Test: Efflux ratio of permeability from basolateral to apical side over apical to basolateral side in human Caco2 cells at 10 to 100 uM after 30 to 120 mins
Assay type: ADME, cell-based
Conditions: Caco-2
measurement-name: efflux ratio at up to 100 µM

| structure-notation | efflux ratio at up to 100 µM |
| --- | --- |
| COc1ccc(-c2ccccc2N2CCN(CCOCCC(=O)NCc3ccncc3)CC2)cc1 | 4.48 |
| COc1ccc(-c2ccccc2N2CCN(CCCCCC(=O)NCc3ccncc3)CC2)cc1 | 3.33 |

---

Target: 5-hydroxytryptamine receptor 1A (Homo sapiens, UniProt P08908)
Sequence (P08908 whole entry): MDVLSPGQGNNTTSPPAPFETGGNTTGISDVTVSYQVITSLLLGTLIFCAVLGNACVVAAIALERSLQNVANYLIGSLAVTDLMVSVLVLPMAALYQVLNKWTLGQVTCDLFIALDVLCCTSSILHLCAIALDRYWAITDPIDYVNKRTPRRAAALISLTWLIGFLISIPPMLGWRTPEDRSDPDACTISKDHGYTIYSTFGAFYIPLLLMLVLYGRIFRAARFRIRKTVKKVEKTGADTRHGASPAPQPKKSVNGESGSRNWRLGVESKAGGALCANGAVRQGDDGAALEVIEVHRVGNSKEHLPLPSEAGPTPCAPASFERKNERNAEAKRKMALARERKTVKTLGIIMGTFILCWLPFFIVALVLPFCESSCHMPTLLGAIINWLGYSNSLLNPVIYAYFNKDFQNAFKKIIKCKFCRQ
Assay: Displacement of [3H]8-OH-DPAT from human 5HT1A receptor transfected in HEK293-EBNA cells after 120 mins
measurement-name: Ki (nM)

| structure-notation | system | Ki [nM] |
| --- | --- | --- |
| COc1ccc(CNC(=O)CCOCCN2CCN(c3ccccc3-c3ccc(F)cc3)CC2)cc1 | 5-hydroxytryptamine receptor 1A (Homo sapiens, UniProt P08908) | 272 |

A. COc1ccc(CNC(=O)CCCCCN2CCN(c3cccnc3-c3ccncc3)CC2)cc1
B. COc1ccc(CNC(=O)CCOCCN2CCN(c3cccc(-c4ccccc4OC)c3)CC2)cc1
## Input Between A and B , which one has the lower reported Ki value? State your choice using its label.
## Output B

---

Biological target: Adrenergic receptor alpha-1 (Rattus norvegicus, UniProt P15823+P23944+P43140)
Sequence (P15823 whole entry): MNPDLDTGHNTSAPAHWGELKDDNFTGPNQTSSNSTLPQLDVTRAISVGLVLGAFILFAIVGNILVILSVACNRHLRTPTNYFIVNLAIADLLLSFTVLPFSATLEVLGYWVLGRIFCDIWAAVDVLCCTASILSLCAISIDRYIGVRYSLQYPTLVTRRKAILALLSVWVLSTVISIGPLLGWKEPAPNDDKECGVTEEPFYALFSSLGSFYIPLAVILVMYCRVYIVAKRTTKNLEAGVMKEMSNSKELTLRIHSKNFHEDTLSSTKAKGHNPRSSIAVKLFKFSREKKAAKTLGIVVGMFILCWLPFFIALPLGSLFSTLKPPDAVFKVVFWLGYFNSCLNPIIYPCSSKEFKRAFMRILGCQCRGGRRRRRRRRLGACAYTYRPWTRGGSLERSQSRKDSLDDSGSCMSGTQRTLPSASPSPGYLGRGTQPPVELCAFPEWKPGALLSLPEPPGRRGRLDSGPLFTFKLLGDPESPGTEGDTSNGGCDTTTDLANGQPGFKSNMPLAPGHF
Sequence (P23944 whole entry): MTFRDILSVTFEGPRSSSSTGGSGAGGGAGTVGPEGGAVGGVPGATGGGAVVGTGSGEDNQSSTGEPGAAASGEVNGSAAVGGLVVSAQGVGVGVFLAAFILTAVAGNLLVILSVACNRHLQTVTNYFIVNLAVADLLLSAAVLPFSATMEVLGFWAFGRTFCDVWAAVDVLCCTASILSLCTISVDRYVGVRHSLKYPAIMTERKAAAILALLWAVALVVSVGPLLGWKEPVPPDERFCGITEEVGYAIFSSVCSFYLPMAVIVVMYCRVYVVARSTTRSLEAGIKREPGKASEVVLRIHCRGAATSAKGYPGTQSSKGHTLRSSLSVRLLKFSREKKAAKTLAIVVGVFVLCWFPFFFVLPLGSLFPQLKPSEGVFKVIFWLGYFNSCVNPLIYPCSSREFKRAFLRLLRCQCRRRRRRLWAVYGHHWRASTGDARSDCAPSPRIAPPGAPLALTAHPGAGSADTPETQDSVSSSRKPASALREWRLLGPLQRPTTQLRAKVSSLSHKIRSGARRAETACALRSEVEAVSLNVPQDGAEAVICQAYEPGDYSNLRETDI
Sequence (P43140 whole entry): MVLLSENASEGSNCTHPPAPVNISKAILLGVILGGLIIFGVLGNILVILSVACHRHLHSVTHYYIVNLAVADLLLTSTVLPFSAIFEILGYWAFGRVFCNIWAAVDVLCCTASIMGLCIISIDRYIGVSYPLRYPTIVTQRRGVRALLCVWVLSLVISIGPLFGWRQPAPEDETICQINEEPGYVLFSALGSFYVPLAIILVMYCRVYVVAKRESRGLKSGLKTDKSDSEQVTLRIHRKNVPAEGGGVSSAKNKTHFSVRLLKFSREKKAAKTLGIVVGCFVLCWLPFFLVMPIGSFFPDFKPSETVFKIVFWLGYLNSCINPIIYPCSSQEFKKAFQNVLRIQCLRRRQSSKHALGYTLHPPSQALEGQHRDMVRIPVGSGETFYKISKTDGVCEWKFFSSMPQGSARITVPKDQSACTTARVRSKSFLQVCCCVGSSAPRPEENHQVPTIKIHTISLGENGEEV
Experiment: Displacement of [3H]-prazosin from rat brain alpha1 adrenergic receptor after 50 mins
measurement-name: Ki (nM)

| structure-notation | unit-label | Ki |
| --- | --- | --- |
| COc1ccc(-c2ccccc2N2CCN(CCOCCC(=O)NCc3ccc(F)nc3)CC2)cc1 | nM | 386 |

a. Cc1ccccc1-c1ccccc1N1CCN(CCOCCC(=O)NCc2ccc(F)nc2)CC1
b. COc1ccc(CNC(=O)CCCCCN2CCN(c3ncccc3-c3ccncc3)CC2)cc1
## Input Parameter check: reported Ki is higher for which label, a or b ? Give the label of your selection.
## Output b
(b: 816 nM, a: 365 nM)
